assay: yeast display, Sf9 membrane polyspecificity reagent, FACS + sequencing; frameworks hold sequencing errors
measured quantity: polyreactivity (PSR sort gate)

{"sequence entry": "QVQLVESGGGLLQAGGSLRLSCAASGFTFFIYAMGWYRQAPGKEREFVAAITGSGGSTYYADSVKGRFRISRDNPKNTVYLLMNSLKPEDTAVYYCNKLSYGRSGYWGQGTQVTVSS", "result": "high polyreactivity"}
{"sequence entry": "QVQLVESGGGLVQAGGSLRLSCAASGIIFGRNARGWYRQAPGKEREMVAGITRRGARTYYADSVKGRFTISRDNAKNTVDLQMKSLKPEDTSVYYCATYSVQTDYGRGDYWGQGTKVTVSS", "result": "high polyreactivity"}
